Biological target: Human immunodeficiency virus type 1 reverse transcriptase (Human immunodeficiency virus 1)
Experiment: Inhibition of RNase H function of HIV1 reverse transcriptase using DNA/RNA hybrid as substrate at 10 uM by fluorescence spectrometer analysis
Measured endpoint: inhibition (%)

[[record]]
mol_smiles = "O=C(O)/C(O)=C/C(=O)c1cn(Cc2cccc(Cl)c2F)c2ccccc2c1=O"
measured_endpoint = "inhibition"
reported_value = 12

[[record]]
mol_smiles = "O=C(O)/C(O)=C/C(=O)c1cn(Cc2ccccc2)c2ccccc2c1=O"
measured_endpoint = "inhibition"
reported_value = 9.6

[[record]]
mol_smiles = "CCOC(=O)/C(O)=C/C(=O)c1cn(Cc2cc(C)cc(C)c2)c2ccccc2c1=O"
measured_endpoint = "inhibition"
reported_value = 21

[[record]]
mol_smiles = "CCOC(=O)/C(O)=C/C(=O)c1cn(Cc2ccccc2F)c2ccccc2c1=O"
measured_endpoint = "inhibition"
reported_value = 2.8

[[record]]
mol_smiles = "O=C(O)/C(O)=C/C(=O)c1cn(Cc2ccc(F)c(F)c2)c2ccccc2c1=O"
measured_endpoint = "inhibition"
reported_value = 44


###

Entries and their selectivity ratio
Experiment: Selectivity index, ratio of CC50 for human HeLa-CD4-LTR-beta-gal cells to EC50 for HIV-1 3B infected in human HeLa-CD4-LTR-beta-gal cells
Assay type: toxicity
Conditions: read-out: Ratio CC50/EC50
Measured endpoint: selectivity ratio

[[record]]
mol_smiles = "O=C(O)/C(O)=C/C(=O)c1cn(Cc2ccc(Cl)cc2)c2ccccc2c1=O"
reported_value = "> 57.5"

[[record]]
mol_smiles = "O=C(O)/C(O)=C/C(=O)c1cn(Cc2ccc(F)cc2F)c2ccccc2c1=O"
reported_value = "> 3.6"

[[record]]
mol_smiles = "CCOC(=O)/C(O)=C/C(=O)c1cn(Cc2cccc(Cl)c2F)c2ccccc2c1=O"
reported_value = "> 5"

[[record]]
mol_smiles = "CCOC(=O)/C(O)=C/C(=O)c1cn(Cc2ccc(O)cc2)c2ccccc2c1=O"
reported_value = "> 1.6"

[[record]]
mol_smiles = "CCOC(=O)/C(O)=C/C(=O)c1cn(Cc2cccc(F)c2)c2ccccc2c1=O"
reported_value = "> 29.4"

[[record]]
mol_smiles = "O=C(O)/C(O)=C/C(=O)c1cn(Cc2ccccc2F)c2ccccc2c1=O"
reported_value = "> 19.2"

[[record]]
mol_smiles = "COc1ccccc1Cn1cc(C(=O)/C=C(\\O)C(=O)O)c(=O)c2ccccc21"
reported_value = "> 5.4"

[[record]]
mol_smiles = "CCOC(=O)/C(O)=C/C(=O)c1cn(Cc2ccccc2F)c2ccccc2c1=O"
reported_value = "> 33.4"

[[record]]
mol_smiles = "O=C(O)/C(O)=C/C(=O)c1cn(Cc2ccc(F)c(F)c2)c2ccccc2c1=O"
reported_value = "> 3.1"

[[record]]
mol_smiles = "CCOC(=O)/C(O)=C/C(=O)c1cn(Cc2ccc(F)c(F)c2)c2ccccc2c1=O"
reported_value = "> 5.1"

[[record]]
mol_smiles = "O=C(O)/C(O)=C/C(=O)c1cn(Cc2c(F)cccc2F)c2ccccc2c1=O"
reported_value = "> 6.2"

[[record]]
mol_smiles = "CCOC(=O)/C(O)=C/C(=O)c1cn(Cc2ccccc2F)c2cc(Cl)ccc2c1=O"
reported_value = "> 4.5"

[[record]]
mol_smiles = "O=C(O)/C(O)=C/C(=O)c1cn(Cc2cccc(Cl)c2F)c2ccccc2c1=O"
reported_value = "> 2.1"

[[record]]
mol_smiles = "CCOC(=O)/C(O)=C/C(=O)c1cn(Cc2c(F)cccc2F)c2ccccc2c1=O"
reported_value = "> 250"

[[record]]
mol_smiles = "CCOC(=O)/C(O)=C/C(=O)c1cn(Cc2ccccc2OC)c2ccccc2c1=O"
reported_value = "> 19.2"

[[record]]
mol_smiles = "O=C(O)/C(O)=C/C(=O)c1cn(Cc2ccccc2F)c2cc(Cl)ccc2c1=O"
reported_value = "> 2.9"

[[record]]
mol_smiles = "CCOC(=O)/C(O)=C/C(=O)c1cn(Cc2ccc(F)cc2F)c2ccccc2c1=O"
reported_value = "> 86.2"

[[record]]
mol_smiles = "CCOC(=O)/C(O)=C/C(=O)c1cn(Cc2ccc(F)c(Cl)c2)c2ccccc2c1=O"
reported_value = "> 2.9"

[[record]]
mol_smiles = "CCOC(=O)/C(O)=C/C(=O)c1cn(Cc2ccccc2)c2ccccc2c1=O"
reported_value = "> 50"

[[record]]
mol_smiles = "CCOC(=O)/C(O)=C/C(=O)c1cn(Cc2c(Cl)cccc2Cl)c2ccccc2c1=O"
reported_value = "> 1.7"

